- TEST METHOD NOTES: Plasma concentration in mouse xenografted with human SU-DHL10 cells at 1 mg/kg, po administered twice daily via gavage for 21 days measured at 12 hrs post last dose
- Assay type: ADME, organism-based
READOUT KIND: concentration at 12 h (nM)
Dear colleague, please return just the value in nM, with no unit written.

(Q) Recorded concentration at 12 h of Cc1ccc2ncccc2c1-c1cc(-c2c(C)noc2C)cc2nc(C3CC3)[nH]c12 , please.
(A) 13

###

- TEST METHOD NOTES: Plasma concentration in mouse xenografted with human SU-DHL10 cells at 20 mg/kg, po administered twice daily via gavage for 21 days measured at 12 hrs post last dose
- Type: ADME, organism-based
READOUT KIND: concentration at 12 h (nM)
Lab book: enter the figure in nM, no units written.

(Q) Please look up its concentration at 12 h: Cc1ccc2ncccc2c1-c1cc(-c2c(C)noc2C)cc2nc(C3CC3)[nH]c12
(A) 32

###

- TEST METHOD NOTES: Plasma concentration in mouse xenografted with human SU-DHL10 cells at 3 mg/kg, po administered twice daily via gavage for 21 days measured at 12 hrs post last dose
- Type: ADME, organism-based
READOUT KIND: concentration at 12 h (nM)
# output: bare number, implied unit nM

(Q) Dear colleague, I am looking for the recorded concentration at 12 h of the following compound: Cc1ccc2ncccc2c1-c1cc(-c2c(C)noc2C)cc2nc(C3CC3)[nH]c12
(A) 18

###

- TEST METHOD NOTES: Plasma concentration in mouse xenografted with human SU-DHL10 cells at 20 mg/kg, po administered twice daily via gavage for 21 days measured at 2 hrs post last dose
- Format: ADME, organism-based
READOUT KIND: concentration at 2 h (µM)
Enter your answer as a number in µM; do not include the unit.

(Q) Returns the measured concentration at 2 h for the input compound. Input: Cc1ccc2ncccc2c1-c1cc(-c2c(C)noc2C)cc2nc(C3CC3)[nH]c12
(A) 4.78

###

- TEST METHOD NOTES: Plasma concentration in mouse xenografted with human SU-DHL10 cells at 3 mg/kg, po administered twice daily via gavage for 21 days measured at 2 hrs post last dose
- Type: ADME, organism-based
READOUT KIND: concentration at 2 h (nM)
Kindly provide the numeric value in nM only, without the unit symbol.

(Q) Data request, read-out concentration at 2 h, for Cc1ccc2ncccc2c1-c1cc(-c2c(C)noc2C)cc2nc(C3CC3)[nH]c12
(A) 2620

###

- TEST METHOD NOTES: Plasma concentration in mouse xenografted with human SU-DHL10 cells at 10 mg/kg, po administered twice daily via gavage for 21 days measured at 12 hrs post last dose
- Assay type: ADME, organism-based
READOUT KIND: concentration at 12 h (nM)
State just the number; it will be interpreted in nM.

(Q) Please report the recorded concentration at 12 h for Cc1ccc2ncccc2c1-c1cc(-c2c(C)noc2C)cc2nc(C3CC3)[nH]c12 .
(A) 32
